tgt: SARS-COV-2 RBD extracellular domain expressed with a C-terminal mouse IgG2a Fc (SARS-CoV-2)
protocol-summary: Biacore SPR, mAb captured on anti-hFc, 37 C

binder	unit-name	t½
mAb14282 (antibody, V domains shown) VH: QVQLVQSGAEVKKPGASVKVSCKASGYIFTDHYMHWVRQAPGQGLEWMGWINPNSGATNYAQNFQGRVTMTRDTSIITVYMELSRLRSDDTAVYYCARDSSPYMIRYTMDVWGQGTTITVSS VL: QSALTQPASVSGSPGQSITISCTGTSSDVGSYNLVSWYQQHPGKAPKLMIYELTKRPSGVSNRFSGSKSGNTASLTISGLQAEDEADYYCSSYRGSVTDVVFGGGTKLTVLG	min	21.1
mAb14234 (antibody, V domains shown) VH: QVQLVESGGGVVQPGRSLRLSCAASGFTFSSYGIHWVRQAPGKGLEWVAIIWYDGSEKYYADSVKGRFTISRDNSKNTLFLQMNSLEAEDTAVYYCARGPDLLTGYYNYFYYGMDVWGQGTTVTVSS VL: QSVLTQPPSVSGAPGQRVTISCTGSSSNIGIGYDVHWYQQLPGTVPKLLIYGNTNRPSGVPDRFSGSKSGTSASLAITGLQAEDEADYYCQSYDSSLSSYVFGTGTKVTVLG	min	28.8
mAb15160 (antibody, V domains shown) VH: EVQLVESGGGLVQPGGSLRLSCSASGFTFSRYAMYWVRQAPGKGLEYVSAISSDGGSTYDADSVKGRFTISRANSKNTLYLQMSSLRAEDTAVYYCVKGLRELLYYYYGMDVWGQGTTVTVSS VL: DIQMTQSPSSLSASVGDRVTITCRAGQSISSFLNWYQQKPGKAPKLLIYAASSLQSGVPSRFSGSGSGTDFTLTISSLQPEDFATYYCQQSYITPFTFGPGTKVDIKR	min	146
mAb14235 (antibody, V domains shown) VH: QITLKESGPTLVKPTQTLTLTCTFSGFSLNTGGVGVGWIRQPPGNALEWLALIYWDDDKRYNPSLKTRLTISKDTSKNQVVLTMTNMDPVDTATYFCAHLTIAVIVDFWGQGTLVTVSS VL: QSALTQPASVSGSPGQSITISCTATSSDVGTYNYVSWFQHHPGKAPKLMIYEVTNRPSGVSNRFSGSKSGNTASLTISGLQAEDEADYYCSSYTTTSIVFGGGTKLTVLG	min	173
mAb14257 (antibody, V domains shown) VH: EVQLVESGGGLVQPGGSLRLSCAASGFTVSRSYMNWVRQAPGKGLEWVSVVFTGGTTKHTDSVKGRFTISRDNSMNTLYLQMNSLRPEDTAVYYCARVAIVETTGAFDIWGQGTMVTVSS VL: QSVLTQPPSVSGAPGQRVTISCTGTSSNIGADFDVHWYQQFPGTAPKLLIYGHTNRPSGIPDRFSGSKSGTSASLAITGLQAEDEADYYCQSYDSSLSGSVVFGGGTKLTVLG	min	34.1
